# Test system: Staphylococcus aureus
# Run description: Antibacterial activity against Staphylococcus aureus MTCC 96 assessed as zone of inhibition measured after 18 hrs by disc diffusion method; note: test concentration or dose not given here
# Type: functional
# inhibition zone (IZ) listing for each entry below

Test smiles: O=C(/C=C/c1ccc2c(c1)OCO2)c1c2[nH]c3ccccc3c2cc[n+]1Cc1ccccc1.[Br-]
Output unit: mm
inhibition zone (IZ): 7

Test smiles: COc1cc(/C=C/C(=O)c2c3[nH]c4ccccc4c3cc[n+]2Cc2ccccc2)cc(OC)c1OC.[Br-]
Output unit: mm
inhibition zone (IZ): 9

Test smiles: COc1ccc(/C=C/C(=O)c2nccc3c2[nH]c2ccccc23)cc1
Output unit: mm
inhibition zone (IZ): 12

Test smiles: C#CC[n+]1ccc2c([nH]c3ccccc32)c1C(=O)/C=C/c1cc(OC)c(OC)c(OC)c1.[Br-]
Output unit: mm
inhibition zone (IZ): 9

Test smiles: O=C(/C=C/c1ccc(C(F)(F)F)cc1)c1nccc2c1[nH]c1ccccc12
Output unit: mm
inhibition zone (IZ): 11

Test smiles: CCCC[n+]1ccc2c([nH]c3ccccc32)c1C(=O)/C=C/c1ccc2c(c1)OCO2.[Br-]
Output unit: mm
inhibition zone (IZ): 9

Test smiles: COc1cc(/C=C/C(=O)c2nccc3c2[nH]c2ccccc23)cc(OC)c1OC
Output unit: mm
inhibition zone (IZ): 7

---

# Test system: MDA-MB-231
# Run description: Cytotoxicity against human MDA-MB-231 cells after 48 hrs by MTT assay
# Type: functional, cell-based
# Protocol conditions: MDA-MB-231, 48 h
Measured IC50 of individual entries

Test smiles: Cc1ccc(/C=C/C(=O)c2nccc3c2[nH]c2ccccc23)cc1
IC50: > 100 µM
--
Test smiles: O=C(/C=C/c1ccc2c(c1)OCO2)c1nccc2c1[nH]c1ccccc12
IC50: > 100 µM
--
Test smiles: C#CC[n+]1ccc2c([nH]c3ccccc32)c1C(=O)/C=C/c1ccc(OC)cc1.[Br-]
IC50: > 100 µM
